- system: human MyD88 (human) (UniProt Q99836)
- assay_overview: P8 phage display panning on plate-immobilised MyD88, after round 4, NGS
Note to self: values exactly at 3000 count are y. So NGS count at or above 3000 count is y, below is n.

Inquiry: Decide: NGS count of LGYHWIDWEYFVGIED >= 3000 count?
Reply text: y

Inquiry: Decide: NGS count of PQDLEWFYERLVSLIL >= 3000 count?
Reply text: y

Inquiry: Decide: NGS count of YAASPWWFDELVKIVG >= 3000 count?
Reply text: y

Inquiry: Decide: NGS count of DPQDLQWFYERLVSLI >= 3000 count?
Reply text: y

Inquiry: Decide: NGS count of LEANDSLFWDRLLYSL >= 3000 count?
Reply text: n

Inquiry: Decide: NGS count of DWVWEHFFPMEEKDQT >= 3000 count?
Reply text: n
